Tested on: COLO 205
Experiment: NCI tumour cell line growth inhibition, 48 h
Calls of active or inactive are those of the source. Cut-off read from the data, not from the text of the source: active = GI50 up to about 1.1 µM and inactive = higher.
Below: a set of entries, each annotated with reported GI50.

MOLECULE	GI50
S=c1[nH]c(=S)c2nnn(-c3ccccc3)c2[nH]1	> 100 µM (inactive)
C=C(CO)CC(O)c1ccccc1 (centres undefined)	> 100 µM (inactive)
O=C1C2CN(Cc3ccccc3)CC1CN(CC1CC1)C2	> 100 µM (inactive)
C#CC1NC(=O)C1N(CC)CC (centres undefined)	> 100 µM (inactive)
Cc1c(C(=O)CC(=O)C(=O)Nc2ccc(Cl)cc2)[n+]([O-])c2ccccc2[n+]1[O-]	> 100 µM (inactive)
O=C1c2c(Br)sc(Br)c2[C@H]2OC(=S)N[C@@H]12	2.51 µM (inactive)
COCC1OC(OC2OCC3OC4(OCC(O)(C(C)OC)C5OCOC54)OC3C2OC)C(OC)C(O)C1OC1OC(C)C(OC)C(OC2OC(C)C3OC4(CC(O)C(OC5CC(OC6CC(C)([N+](=O)[O-])C(OC)C(C)O6)C(OC(=O)c6c(C)c(Cl)c(O)c(Cl)c6OC)C(C)O5)C(C)O4)OC3(C)C2O)C1O (centres undefined)	> 100 µM (inactive)
C[C@]12CC[C@H](O)CC1=CC[C@@H]1[C@@H]2CC[C@]2(C)c3nc(Cl)ccc3C[C@@H]12	> 100 µM (inactive)
ClCCN(CCCl)c1ccc(CNCCCNCc2ccc(N(CCCl)CCCl)cc2)cc1	1.62 µM (inactive)

###

Tested on: SN12C
Assay: NCI tumour cell line growth inhibition, 48 h
Calls of active or inactive are those of the source. Cut-off read from the data, not from the text of the source: active = GI50 up to about 1.1 µM and inactive = higher. Non-standard residues stand in square brackets, D forms with d. Residues, ends and D or L forms follow the SMILES beside them. ξ: configuration not given here. *: point of attachment. NMeY = CN[C@@H](Cc1ccc(O)cc1)C(=O)O; Cbz = O=C(OCc1ccccc1)*; ξA = CC(N)C(=O)O
Classes used: 1 = active, 0 = inactive

COMPOUND	ASSIGNED LABEL
COc1ccc(/C=c2/[nH]c(=O)/c(=C\c3ccc(OCc4ccccc4)cn3)[nH]c2=O)cc1	0
Clc1ccccc1-c1nc2cc(C34CC5CC(CC(C5)C3)C4)ccc2[nH]1	0
COc1ccc(C[C@@H](C(=O)NCC(N)=O)N(C)C(=O)[C@@H]2CCCN2C(=O)[C@H](CC(C)C)NC(=O)C(C)NC(=O)OCc2ccccc2)cc1 (stereo partly drawn) (Cbz-[ξA]LP[NMeY](Me)G-NH2)	0
COC1(OC)CC(CO)(CNc2nc(N)nc(Cl)c2C=O)C1	0
Cn1c(-c2cccs2)cc(-c2cccs2)c1-c1cccs1	0
O=C(NC(=O)c1cc2cc(Br)cc(Br)c2oc1=O)Oc1ccccc1	0
CC[C@@H]1NC(C(=O)OC)Cc2c1[nH]c1ccccc21 (stereo partly drawn)	0
CSc1c(C)[n+]([O-])c2cc(Cl)c(Cl)cc2[n+]1[O-]	0
OC(c1cccs1)c1cc2ccccc2s1 (stereo not drawn)	0
CCOC(=O)Nn1c(C)nnc1-c1ccccc1	0
C(=C\Nc1ccc(-c2ccccc2)cc1)/C=N/c1ccc(-c2ccccc2)cc1	0
Clc1ccc(CCN[C@H]2CCCC[C@H]2N2CCCC2)cc1Cl	0
CC(=O)OC(C)(C)/C=C/C(=O)[C@](C)(O)[C@H]1[C@H](O)C[C@@]2(C)[C@@H]3CC=C4[C@@H](C[C@H](O)[C@H](O)C4(C)C)[C@]3(C)C(=O)C[C@]12C	1
COc1ccc([C@H](NC(=O)c2ccccc2)[C@@H](O)C(=O)O[C@H]2C[C@@]3(O)C(OC(=O)c4ccccc4)C4[C@](C)(C(=O)[C@H](OC(C)=O)C(=C2C)C3(C)C)[C@@H](O)C[C@H]2OC[C@@]42OC(C)=O)cc1 (stereo partly drawn)	1
CCOC(=O)c1nn2c(nc1=O)sc1ccc3ccccc3c12	0
CC1Cc2c(Br)nc(N)nc2NC1=O (stereo not drawn)	0
O=C(O)c1c(Cl)c(Cl)c(Cl)c(Cl)c1C(=O)Nc1ccc2cn[nH]c2c1	0
COC(=O)C12OCC34C(CC5C(C)=C(O)C(=O)CC5(C)C3C(O)C1O)OC(=O)C(OC(=O)C=C(C)C)C24 (stereo not drawn)	0
